These data points were gathered from ChEMBL document CHEMBL1201862.

# test_system: Estrogen receptor beta (Homo sapiens, UniProt Q92731);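 further: recombinant ER-beta bound to coactivator SRC1 peptide in presence of estradiol agonist; inhibitors block coactivator peptide binding and lower the FRET signal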
# Sequence (Q92731 whole entry): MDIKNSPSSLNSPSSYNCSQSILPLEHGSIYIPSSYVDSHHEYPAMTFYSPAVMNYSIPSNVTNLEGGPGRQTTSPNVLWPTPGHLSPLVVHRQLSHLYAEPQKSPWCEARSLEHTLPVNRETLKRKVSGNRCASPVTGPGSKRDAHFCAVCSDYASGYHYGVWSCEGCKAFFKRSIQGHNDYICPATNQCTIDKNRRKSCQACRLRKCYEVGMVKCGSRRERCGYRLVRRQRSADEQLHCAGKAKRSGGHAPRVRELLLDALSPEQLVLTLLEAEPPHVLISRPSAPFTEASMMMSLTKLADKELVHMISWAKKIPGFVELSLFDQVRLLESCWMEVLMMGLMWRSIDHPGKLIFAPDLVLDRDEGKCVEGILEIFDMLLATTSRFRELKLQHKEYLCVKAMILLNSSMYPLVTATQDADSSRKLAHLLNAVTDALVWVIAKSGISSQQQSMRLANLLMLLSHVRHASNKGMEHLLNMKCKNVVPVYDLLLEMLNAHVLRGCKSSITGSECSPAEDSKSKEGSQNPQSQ
Calls of active or inactive are those of the source.

>  <smiles_data>
CC(=O)c1c(COC(=O)c2ccco2)nc2ccccc2[n+]1[O-]

>  <IC50>
10.8 µM (active)

$$$$
>  <smiles_data>
CCn1nnc(NC(=O)CSc2ccc(Cl)cc2)n1

>  <IC50>
4.65 µM (active)

$$$$
>  <smiles_data>
CC(C)(C)OC(=O)N1CCN(c2ccc(NC(=O)Cn3nnc(-c4ccccc4)n3)cc2)CC1

>  <IC50>
6.06 µM (active)

$$$$
>  <smiles_data>
Cc1nn(Cc2ccccc2Cl)c(C)c1C(=O)NCc1ccco1

>  <IC50>
> 50 µM (not active)

$$$$
>  <smiles_data>
c1ccc(-c2noc(-c3ccc4c(c3)OCO4)n2)nc1

>  <IC50>
37.8 µM (not active)

$$$$

---

# test_system: High affinity choline transporter 1 (Homo sapiens, UniProt Q9GZV3)
# Sequence (Q9GZV3 whole entry): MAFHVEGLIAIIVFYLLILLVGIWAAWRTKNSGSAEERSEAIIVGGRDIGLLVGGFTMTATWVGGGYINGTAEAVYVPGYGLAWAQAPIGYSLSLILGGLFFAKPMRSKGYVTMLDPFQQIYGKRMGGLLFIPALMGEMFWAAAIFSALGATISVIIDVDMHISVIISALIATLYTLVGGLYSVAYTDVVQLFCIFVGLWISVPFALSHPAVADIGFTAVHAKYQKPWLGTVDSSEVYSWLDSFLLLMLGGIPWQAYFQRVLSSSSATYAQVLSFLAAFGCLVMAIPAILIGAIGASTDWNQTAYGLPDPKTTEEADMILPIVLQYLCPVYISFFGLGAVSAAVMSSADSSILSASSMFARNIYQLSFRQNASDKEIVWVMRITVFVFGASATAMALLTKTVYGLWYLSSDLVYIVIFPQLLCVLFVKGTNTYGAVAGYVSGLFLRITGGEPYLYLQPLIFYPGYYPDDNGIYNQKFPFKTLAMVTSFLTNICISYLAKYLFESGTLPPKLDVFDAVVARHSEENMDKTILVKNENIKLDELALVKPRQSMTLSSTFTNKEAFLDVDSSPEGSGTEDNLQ
# experimental_details: CHT inhibitors, dose response, cell-based, 5-point CRC, membrane potential dye (AID 504840)
# Format: functional
The source made the active and inactive calls.
Measured IC50 values are reported for all entries that follow.

>  <smiles_data>
O=C(OCC(=O)c1c[nH]c2ccccc12)c1cccc(O)c1

>  <IC50>
15.8 µM (active)

$$$$
>  <smiles_data>
S=C(NCc1ccccn1)Nc1ccc(Br)cc1Cl

>  <IC50>
3.84 µM (active)

$$$$
>  <smiles_data>
N=C1C[N+](CC23CC4CC(CC(C4)C2)C3)=NO1

>  <IC50>
13.5 µM (active)

$$$$
>  <smiles_data>
CCOC(=O)c1ccccc1N/C=C/C(=O)c1cccs1

>  <IC50>
13.2 µM (active)

$$$$
>  <smiles_data>
O=C(NC1CCCCCCC1)c1ccc(S(=O)(=O)N2CCCC2)cc1

>  <IC50>
14.5 µM (active)

$$$$
>  <smiles_data>
CCN1CCN(CCNC(=O)c2ccc3nc(-c4cccc(C)c4)c(-c4cccc(C)c4)nc3c2)CC1

>  <IC50>
3.76 µM (active)

$$$$
>  <smiles_data>
OCc1ccccc1OCCOc1ccc(Cl)c2cccnc12

>  <IC50>
11.5 µM (active)

$$$$
>  <smiles_data>
Cc1nn(-c2ccccc2)c2nc(O)cc(C(F)(F)F)c12

>  <IC50>
7.1 µM (active)

$$$$
>  <smiles_data>
CCOc1cc(/C=N/NC(=O)CN2CCCCC2)ccc1OCc1cccc(Cl)c1

>  <IC50>
14.5 µM (active)

$$$$

---

Lab note: AC50 readings collected with Cytochrome P450 3A4 (Homo sapiens) for the following compounds.
Sequence (P08684 whole entry): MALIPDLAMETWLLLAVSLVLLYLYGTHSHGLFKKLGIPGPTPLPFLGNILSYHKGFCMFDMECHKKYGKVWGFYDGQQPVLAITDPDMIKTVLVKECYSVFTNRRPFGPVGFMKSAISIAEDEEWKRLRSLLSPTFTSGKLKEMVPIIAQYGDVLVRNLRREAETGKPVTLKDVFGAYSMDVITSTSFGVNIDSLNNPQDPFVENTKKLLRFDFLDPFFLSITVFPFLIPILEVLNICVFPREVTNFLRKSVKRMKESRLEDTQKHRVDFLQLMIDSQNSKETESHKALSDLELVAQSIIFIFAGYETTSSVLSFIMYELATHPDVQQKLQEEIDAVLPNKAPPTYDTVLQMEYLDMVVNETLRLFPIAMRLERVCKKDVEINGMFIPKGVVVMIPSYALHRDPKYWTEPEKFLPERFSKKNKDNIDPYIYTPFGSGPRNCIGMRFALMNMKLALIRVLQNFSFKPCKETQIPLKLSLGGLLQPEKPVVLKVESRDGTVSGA
metric: AC50

>  <compound>
CC(C)COc1ccc(C2(C#N)CC[N+](C)(C)CC2)cc1.[Br-]

>  <metric>
AC50

>  <test_value>
39.8 µM (inconclusive)

$$$$
>  <compound>
CC1CCCN(C(=O)c2sc3cc([N+](=O)[O-])ccc3c2Cl)C1 (centres undefined)

>  <metric>
AC50

>  <test_value>
17.8 µM (inconclusive)

$$$$
>  <compound>
Nc1ncnc2c1ncn2C1CCCC1

>  <metric>
AC50

>  <test_value>
0.0398 µM (inconclusive)

$$$$
>  <compound>
Cn1ncc2c(Nc3cccc(Cl)c3)nc(Nc3cccc(Cl)c3)nc21

>  <metric>
AC50

>  <test_value>
6.31 µM (inconclusive)

$$$$
>  <compound>
Cc1cccc(Oc2ncc(-c3ccc(Cl)cc3)cn2)c1C

>  <metric>
AC50

>  <test_value>
25.1 µM (inconclusive)

$$$$
>  <compound>
CCNC(=Nc1ccc(Cl)cc1)c1cccnc1

>  <metric>
AC50

>  <test_value>
22.4 µM (inconclusive)

$$$$
>  <compound>
ON(CCc1ccccn1)Cc1ccccc1

>  <metric>
AC50

>  <test_value>
3.98 µM (inconclusive)

$$$$
>  <compound>
CC(Oc1ccc(-c2ccccc2)c(F)c1)c1ccn(S(=O)(=O)c2ccc(Cl)cc2)n1 (centres undefined)

>  <metric>
AC50

>  <test_value>
15.8 µM (inconclusive)

$$$$
>  <compound>
N#C/C(=C\c1ccc(Oc2ccc(C(F)(F)F)cc2[N+](=O)[O-])cc1)c1nc2ccccc2[nH]1

>  <metric>
AC50

>  <test_value>
11.2 µM (inconclusive)

$$$$
